Taken from patent US10519106B2.

Biological target: intracellular domain of DDR1 (Homo sapiens)
Construct: the intracellular domain of DDR1 (in a final concentration of 5 ng/μL) (Carna Biosciences, Inc.)
Test: Evaluation of DDR1 inhibition activity with HTRF KinEASE-TK kit
Settings: intracellular domain of DDR1 5 ng/μL, ATP 25 mol/L (so in the source), TK Substrate-biotin 1000 nmol/L, room temperature, one hour
quantity.name: IC50 (µM)

In the examples that follow, each entry is paired with its recorded IC50.
COc1ccc(C(F)(F)F)cc1NC(=O)NCc1ccccc1OCc1ccc(C(N)=O)cc1    0.0233
COc1ccc(OC(F)(F)F)cc1NC(=O)NCc1ccccc1Oc1ccc(C(N)=O)cc1    0.021
COc1ccc(OC(F)(F)F)cc1NC(=O)NCc1ccccc1OCc1ccc(C(N)=O)cc1    0.0386
CCOc1ccc(C(F)(F)F)cc1NC(=O)NCc1ccccc1Oc1ccc(C(N)=O)cc1    0.0225
NC(=O)c1ccc(COc2ccccc2CNC(=O)Nc2cccc(C(F)(F)F)c2)cc1    0.0374

1 = NC(=O)c1ccc(Oc2ccccc2CNC(=O)Nc2cc(OC(F)(F)F)ccc2OC2COC2)cc1
2 = COC(=O)c1ccc(COc2ccccc2CNC(=O)Nc2cc(OC(F)(F)F)ccc2OC)cc1
Exercise: // compare: 1 vs 2 , metric IC50, want the smaller The response must carry the label of the picked entry.
Key: 1

###

Target: intracellular domain of DDR1 (Homo sapiens, UniProt Q08345)
Construct: the intracellular domain of DDR1 (in a final concentration of 5 ng/μL) (Carna Biosciences, Inc.)
Sequence (Q08345 444-876 isoform Q08345-2 limits assumed): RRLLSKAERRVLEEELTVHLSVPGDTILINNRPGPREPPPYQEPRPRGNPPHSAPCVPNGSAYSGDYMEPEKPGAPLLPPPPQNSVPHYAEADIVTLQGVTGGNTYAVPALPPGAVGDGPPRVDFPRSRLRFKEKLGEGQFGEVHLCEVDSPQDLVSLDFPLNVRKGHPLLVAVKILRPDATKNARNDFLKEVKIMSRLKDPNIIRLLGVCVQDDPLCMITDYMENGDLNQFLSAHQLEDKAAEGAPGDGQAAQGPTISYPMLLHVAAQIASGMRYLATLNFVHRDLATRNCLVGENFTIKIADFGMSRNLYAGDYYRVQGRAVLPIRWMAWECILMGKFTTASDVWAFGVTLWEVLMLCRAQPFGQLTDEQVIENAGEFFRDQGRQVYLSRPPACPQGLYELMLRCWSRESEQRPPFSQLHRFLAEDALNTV
Assay: Evaluation of DDR1 inhibition activity with HTRF KinEASE-TK kit
Details: intracellular domain of DDR1 5 ng/μL, ATP 25 mol/L (so in the source), TK Substrate-biotin 1000 nmol/L, room temperature, one hour
pIC50: −log10 of the molar value. Where a name gives a salt, the structure may show the parent alone.
quantity.name: pIC50

In the examples that follow, each entry is paired with its recorded pIC50.
NC(=O)c1ccc(Oc2ccccc2CNC(=O)Nc2ccc(CN3CCNCC3)c(C(F)(F)F)c2)cc1 [Compound of Example 40, hydrochloride]    8.05
NC(=O)c1ccc(Oc2ccccc2CNC(=O)Nc2cc(C(F)(F)F)ccc2OC2COC2)cc1    7.89

a = CNC(=O)c1ccc(COc2ccccc2CNC(=O)Nc2cc(OC(F)(F)F)ccc2OC)cc1
b = NC(=O)c1ccc(Oc2ccccc2CNC(=O)Nc2ccc(CO)c(C(F)(F)F)c2)cc1
Exercise: Which entry has a larger number for pIC50, a or b ? The response must carry the label of the picked entry.
Key: b

###

Target: intracellular domain of DDR1 (Homo sapiens)
Construct: the intracellular domain of DDR1 (in a final concentration of 5 ng/μL) (Carna Biosciences, Inc.)
Test: Evaluation of DDR1 inhibition activity with HTRF KinEASE-TK kit
Conditions: intracellular domain of DDR1 5 ng/μL, ATP 25 mol/L (so in the source), TK Substrate-biotin 1000 nmol/L, room temperature, one hour
Structures can show the parent of a compound that is named as a salt.
quantity.name: IC50 (nM)

In the examples that follow, each entry is paired with its recorded IC50.
CNCCNC(=O)c1ccc(COc2ccccc2CNC(=O)Nc2cc(OC(F)(F)F)ccc2OC)cc1    185
CCN(CC)CCNC(=O)c1ccc(COc2ccccc2CNC(=O)Nc2cc(OC(F)(F)F)ccc2OC)cc1    308
COc1ccc(S(F)(F)(F)(F)F)cc1NC(=O)NCc1ccccc1Oc1ccncc1 [Compound of Example 23, hydrochloride]    78.7
NC(=O)c1ccc(Oc2ccccc2CNC(=O)Nc2cc(CO)cc(C(F)(F)F)c2)cc1    12.9

a = COc1ccc(C(F)(F)F)cc1NC(=O)NCc1ccccc1Oc1ccc(C(N)=O)cc1
b = COc1ccc(OC(F)(F)F)cc1NC(=O)NCc1ccccc1OCc1ccc(C(=O)N(C)C)cc1
Exercise: // compare: a vs b , metric IC50, want the smaller The response must carry the label of the picked entry.
Key: a

###

Molecular target: intracellular domain of DDR1 (Homo sapiens)
Construct: the intracellular domain of DDR1 (in a final concentration of 5 ng/μL) (Carna Biosciences, Inc.)
Assay: Evaluation of DDR1 inhibition activity with HTRF KinEASE-TK kit
Conditions: intracellular domain of DDR1 5 ng/μL, ATP 25 mol/L (so in the source), TK Substrate-biotin 1000 nmol/L, room temperature, one hour
pIC50: −log10 of the molar value.
quantity.name: pIC50

In the examples that follow, each entry is paired with its recorded pIC50.
COc1ccc(S(F)(F)(F)(F)F)cc1NC(=O)NCc1ccccc1Oc1ccnc(-n2ccnc2)n1    7.37
COC(=O)c1ccc(COc2ccccc2CNC(=O)Nc2cc(C(F)(F)F)cc(CO)c2OC)cc1    6.81
COc1c(CO)cc(C(F)(F)F)cc1NC(=O)NCc1ccccc1OCc1cccc(C(N)=O)c1    7.55
COc1ccc(OC(F)(F)F)cc1NC(=O)NCc1ccccc1OCc1ccc(C(=O)O)cc1    6.76
COc1c(CO)cc(C(F)(F)F)cc1NC(=O)NCc1ccccc1Oc1ccc(C(=O)O)cc1    7.84

1 = COc1c(CO)cc(C(F)(F)F)cc1NC(=O)NCc1ccccc1Oc1ccc(C(N)=O)cc1
2 = COc1c(CO)cc(C(F)(F)F)cc1NC(=O)NCc1ccccc1OCc1ccc(C(=O)O)cc1
3 = CCOc1ccc(Cl)cc1NC(=O)NCc1ccccc1Oc1ccc(C(N)=O)cc1
Exercise: Arrange items by their pIC50 values in increasing order. Rank the items, then write their labels in that order.
Key: 2, 3, 1

###

Biological target: intracellular domain of DDR1 (Homo sapiens)
Construct: the intracellular domain of DDR1 (in a final concentration of 5 ng/μL) (Carna Biosciences, Inc.)
Assay: Evaluation of DDR1 inhibition activity with HTRF KinEASE-TK kit
Conditions: intracellular domain of DDR1 5 ng/μL, ATP 25 mol/L (so in the source), TK Substrate-biotin 1000 nmol/L, room temperature, one hour
quantity.name: IC50 (nM)

In the examples that follow, each entry is paired with its recorded IC50.
COc1ccc(OC(F)(F)F)cc1NC(=O)NCc1ccccc1OCc1ccnc(C(N)=O)c1    47
COc1ccc(OC(F)(F)F)cc1NC(=O)NCc1ccccc1OCc1ccncc1    51.7
NC(=O)c1cccc(Oc2ccccc2CNC(=O)Nc2cccc(C(F)(F)F)c2)c1    23.7
NC(=O)c1ccc(Oc2ccccc2CNC(=O)Nc2cccc(C(F)(F)F)c2)nc1    23.4
COc1ccc(C(F)(F)F)cc1NC(=O)NCc1ccccc1OCc1cccc(C(N)=O)c1    67.4

P = NC(=O)c1ccc(Oc2ccccc2CNC(=O)Nc2cccc(Cl)c2)cc1
Q = NC(=O)c1ccc(Oc2ccccc2CNC(=O)Nc2cc(C(F)(F)F)ccc2OC2CCNCC2)cc1
Exercise: Which entry has a larger number for IC50, P or Q ? The response must carry the label of the picked entry.
Key: Q

a = COc1ccc(S(F)(F)(F)(F)F)cc1NC(=O)NCc1ccccc1OCc1ccncc1
b = CNC(=O)c1ccc(Oc2ccccc2CNC(=O)Nc2cc(C(F)(F)F)ccc2OC2COC2)cc1
c = COc1ccc(C(F)(F)F)cc1NC(=O)NCc1cccc(OCc2cccnc2)c1
Exercise: List items by IC50 in falling order. Rank the items, then write their labels in that order.
Key: b, a, c

###

Target: intracellular domain of DDR1 (Homo sapiens)
Construct: the intracellular domain of DDR1 (in a final concentration of 5 ng/μL) (Carna Biosciences, Inc.)
Assay: Evaluation of DDR1 inhibition activity with HTRF KinEASE-TK kit
Settings: intracellular domain of DDR1 5 ng/μL, ATP 25 mol/L (so in the source), TK Substrate-biotin 1000 nmol/L, room temperature, one hour
Structures can show the parent of a compound that is named as a salt.
quantity.name: IC50 (nM)

CNC(=O)c1ccc(Oc2ccccc2CNC(=O)Nc2cccc(C(F)(F)F)c2)nc1    29.1

a = CN1CCN(Cc2cc(NC(=O)NCc3ccccc3Oc3ccc(C(N)=O)cc3)cc(C(F)(F)F)c2)CC1
b = COc1ccc(OC(F)(F)F)cc1NC(=O)NCc1ccccc1OCc1cccnc1
Exercise: // compare: a vs b , metric IC50, want the smaller The response must carry the label of the picked entry.
Key: a

P = COc1c(CO)cc(S(F)(F)(F)(F)F)cc1NC(=O)NCc1ccccc1OCc1ccncc1
Q = NC(=O)c1ccc(Oc2ccccc2CNC(=O)Nc2cc(CN3CCNCC3)cc(C(F)(F)F)c2)cc1 [Compound of Example 39, hydrochloride]
Exercise: Which entry has a larger number for IC50, P or Q ? The response must carry the label of the picked entry.
Key: P

P = COc1ccc(OC(F)(F)F)cc1NC(=O)NCc1ccccc1OCc1cccc(C(=O)O)c1
Q = COc1ccc(Cl)cc1NC(=O)NCc1ccccc1Oc1ccc(C(N)=O)cc1
Exercise: Which entry has a larger number for IC50, P or Q ? The response must carry the label of the picked entry.
Key: P

I = COc1ccc(OC(F)(F)F)cc1NC(=O)NCc1ccccc1OCc1ccc(C(=O)NCCN(C)C)cc1
II = CN1CCN(Cc2ccc(NC(=O)NCc3ccccc3Oc3ccc(C(N)=O)cc3)cc2C(F)(F)F)CC1
Exercise: // compare: I vs II , metric IC50, want the smaller The response must carry the label of the picked entry.
Key: II
